Give Kd for every item shown.
- target entity: Galectin-3 (Homo sapiens, UniProt P17931)
- Sequence (P17931 whole entry): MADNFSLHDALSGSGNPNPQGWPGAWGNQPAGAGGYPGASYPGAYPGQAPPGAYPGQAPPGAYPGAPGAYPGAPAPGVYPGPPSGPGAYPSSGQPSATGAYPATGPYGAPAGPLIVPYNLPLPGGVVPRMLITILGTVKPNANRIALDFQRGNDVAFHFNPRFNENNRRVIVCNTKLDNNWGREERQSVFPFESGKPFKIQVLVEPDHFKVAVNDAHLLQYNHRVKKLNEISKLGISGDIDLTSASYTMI
- assay info: fluorescence anisotropy assay, compound as inhibitor of galectin / fluorescein tagged saccharide probe interaction

INPUT: What value of Kd on Galectin-3 (Homo sapiens, UniProt P17931) does CO[C@@H]1[C@@H](n2cc(-c3csc(O)n3)nn2)[C@@H](O)[C@@H](CO)O[C@@H]1Sc1ccc(Cl)c(Cl)c1 [Example 9] have?
OUTPUT: 4.6 µM

INPUT: What value of Kd on Galectin-3 (Homo sapiens, UniProt P17931) does CC(C)O[C@@H]1[C@@H](n2cc(-c3csc(O)n3)nn2)[C@@H](O)[C@@H](CO)O[C@@H]1Sc1ccc(Cl)c(Cl)c1 [Example 8] have?
OUTPUT: > 100 µM

INPUT: What value of Kd on Galectin-3 (Homo sapiens, UniProt P17931) does CCO[C@@H]1[C@@H](n2cc(-c3nccs3)nn2)[C@@H](O)[C@@H](CO)O[C@@H]1Sc1cc(Cl)cnc1C#N [Example 71] have?
OUTPUT: 3.6 µM

INPUT: What value of Kd on Galectin-3 (Homo sapiens, UniProt P17931) does CO[C@@H]1[C@@H](n2cc(-c3csc(N)n3)nn2)[C@@H](O)[C@@H](CO)O[C@@H]1Sc1cc(Cl)c(F)c(Cl)c1 [Example 16] have?
OUTPUT: 8.4 µM

INPUT: What value of Kd on Galectin-3 (Homo sapiens, UniProt P17931) does CO[C@@H]1[C@@H](n2cc(-c3nc(Cl)cs3)nn2)[C@@H](O)[C@@H](CO)O[C@@H]1Sc1cncc(C#N)c1 [Example 82] have?
OUTPUT: 0.52 µM

INPUT: What value of Kd on Galectin-3 (Homo sapiens, UniProt P17931) does OC[C@H]1O[C@H](Sc2cncc(Cl)c2)[C@H](O)[C@@H](n2cc(-c3nc(Cl)cs3)nn2)[C@H]1O [Example 48] have?
OUTPUT: 0.42 µM
